# procedure text: Plasma pharmacokinetics, Arm II (oral BID), phase 1 trial
# Type: in vivo, human
# condition details: human, plasma, po, 130 mg, Arm II PO BID 130 mg, day 1, N=3
experimental readout: AUC(0-inf)

Record request: AUC(0-inf) value, item Nc1ncc(-c2cnn(CCO)c2)c2scc(-c3ccc(NC(=O)Nc4cccc(F)c4)cc3)c12
6530 ng·h/mL

###

# procedure text: Plasma pharmacokinetics, Arm II (oral BID), phase 1 trial
# Assay type: in vivo, human
# condition details: human, plasma, po, 340 mg, Arm II PO BID 340 mg, day 1, N=3; read-out: Cmax
experimental readout: Cmax (µg/mL)
Unit µg/mL implied. Number only.

What does the data say about its Cmax? Entry: Nc1ncc(-c2cnn(CCO)c2)c2scc(-c3ccc(NC(=O)Nc4cccc(F)c4)cc3)c12
2.04

###

# procedure text: Plasma pharmacokinetics, Arm I (oral QD), phase 1 trial
# Format: in vivo, human
# condition details: human, in vivo, po, 120 mg, AUC∞
experimental readout: AUC(0-inf)

Tell me the measured AUC(0-inf) of Nc1ncc(-c2cnn(CCO)c2)c2scc(-c3ccc(NC(=O)Nc4cccc(F)c4)cc3)c12 , please.
5400 ng·h/mL

###

# procedure text: Plasma pharmacokinetics, Arm II (oral BID), phase 1 trial
# Type: in vivo, human
# condition details: human, plasma, po, 60 mg, Arm II PO BID 60 mg, day 1, N=3; read-out: Tmax
experimental readout: Tmax (h)
Numeric only. Scale: h

I have this compound here, Nc1ncc(-c2cnn(CCO)c2)c2scc(-c3ccc(NC(=O)Nc4cccc(F)c4)cc3)c12 [ilorasertib, Ilorasertib] , and I need its recorded Tmax.
5.7

###

# procedure text: Plasma pharmacokinetics, Arm III (i.v. infusion), phase 1 trial
# Type: in vivo, human
# condition details: human, plasma, iv, Arm III i.v. infusion all doses, day 15, N=6
experimental readout: clearance
The answer consists of two parts: a number and, after it, its unit.

Requested field: clearance. Item: Nc1ncc(-c2cnn(CCO)c2)c2scc(-c3ccc(NC(=O)Nc4cccc(F)c4)cc3)c12
67.3 mL/min

###

# procedure text: Plasma pharmacokinetics, Arm II (oral BID), phase 1 trial
# Type: in vivo, human
# condition details: human, plasma, po, 60 mg, Arm II PO BID 60 mg, day 15, N=1
experimental readout: AUC(0-inf)
A complete answer gives the number and then names the unit.

Quick check: AUC(0-inf) of Nc1ncc(-c2cnn(CCO)c2)c2scc(-c3ccc(NC(=O)Nc4cccc(F)c4)cc3)c12 ?
5430 ng·h/mL

###

# procedure text: Plasma pharmacokinetics, Arm II (oral BID), phase 1 trial
# Type: in vivo, human
# condition details: human, plasma, po, 190 mg, Arm II PO BID 190 mg, day 15, N=2, mean (individual)
# Experimental: Pharmacokinetics of ilorasertib were evaluated in the dose-escalation cohort on blood samples that were collected on cycle 1 days 1 and 15. Parameters determined: Cmax, time to Cmax (Tmax), terminal phase elimination half-life (t1/2), clearance, apparent oral clearance (CL/F), and area under the plasma concentration-time curve from time 0 to time of last measurable concentration (AUCt) and from time 0 to infinity (AUC∞). […]
experimental readout: AUC(0-inf) (ng·h/mL)
Please reply with the bare figure in ng·h/mL and do not write the unit itself.

Endpoint output: AUC(0-inf) of Nc1ncc(-c2cnn(CCO)c2)c2scc(-c3ccc(NC(=O)Nc4cccc(F)c4)cc3)c12 . Value?
10700
